FYI, the data here is from the CheMixHub viscosity set.

details: 323.15 K; 101.3 kPa
Listed here are molecules together with their documented viscosity.
Supply the numeric figure in mPa·s, leaving out any unit text.

Completed entries (count: 3):
- Test Smiles: "Cc1ccccc1O"
  Test Readout: "viscosity"
  Recorded Value: 3.02
- Test Smiles: "CCCCCC"
  Test Readout: "viscosity"
  Recorded Value: 0.251
- Test Smiles: "CCC[N+]1(C)CCCCC1.O=S(=O)([N-]S(=O)(=O)C(F)(F)F)C(F)(F)F"
  Test Readout: "viscosity"
  Recorded Value: 45.1

Pending molecule:
(Q) Fill blank: measured viscosity of the molecule CN(C)CCO is ____.
(A) 1.734

---

Listed here are molecules together with their documented viscosity.
assay: xn = mol fraction of the nth substance listed; conditions: 303.15 K; 100 kPa; x1 = 0.1001
Supply the numeric figure in mPa·s, leaving out any unit text.

- Molecule: "C1CCC2=[NH+]CCCN2CC1.c1nc[n-]n1 + CC(C)O"
  viscosity (mPa·s): 7.85
- Molecule: "C1CCC2=[NH+]CCCN2CC1.c1nc[n-]n1 + CO"
  viscosity (mPa·s): 5.23
- Molecule: "C1CCC2=[NH+]CCCN2CC1.c1nc[n-]n1 + CCCCO"
  viscosity (mPa·s): 6.47

(Q) Fill blank: measured viscosity of the molecule C1CCC2=[NH+]CCCN2CC1.c1nc[n-]n1 + CN(C)C=O is ____.
(A) 1.42

(Q) Fill blank: measured viscosity of the molecule C1CCC2=[NH+]CCCN2CC1.c1nc[n-]n1 + CCO is ____.
(A) 4.38

(Q) Fill blank: measured viscosity of the molecule C1CCC2=[NH+]CCCN2CC1.c1nc[n-]n1 + CS(C)=O is ____.
(A) 3.86

---

details: 298.15 K; 100 kPa
Test Readout: viscosity (mPa·s)
Supply the numeric figure in mPa·s, leaving out any unit text.

Completed entries (count: 3):
- Test Smiles: "CC(C)(C)c1ccccc1"
  viscosity (mPa·s): 1.118
- Test Smiles: "CCCCCCCC[P+](CC)(CC)CC.O=[N+]([O-])c1cnc[n-]1"
  viscosity (mPa·s): 286
- Test Smiles: "C=CC(=O)OC"
  viscosity (mPa·s): 0.4602

Pending compound:
(Q) Fill blank: measured viscosity of the compound C=CC(=O)OCCCC is ____.
(A) 0.8385

---

Listed here are molecules together with their documented viscosity.
conditions: 318.15 K; 100 kPa
Supply the numeric figure in mPa·s, leaving out any unit text.

- Test Smiles: "C=CC(=O)OC"
  Measurement Units: "mPa·s"
  Recorded Value: 0.3276
- Test Smiles: "CCCCCCCC[P+](CC)(CC)CC.O=[N+]([O-])c1cnc[n-]1"
  Measurement Units: "mPa·s"
  Recorded Value: 98
- Test Smiles: "C=CC(=O)OCCCC"
  Measurement Units: "mPa·s"
  Recorded Value: 0.6387

Pending molecule:
(Q) Fill blank: measured viscosity of the molecule CC(C)(C)c1ccccc1 is ____.
(A) 0.853

---

Listed here are compounds together with their documented viscosity.
test: xn = mol fraction of the nth substance listed; details: 298.15 K; 101 kPa; x1 = 0.5
Supply the numeric figure in mPa·s, leaving out any unit text.

- Compound: "C=CC(=O)OCCCC + CCCCC(C)O"
  viscosity / mPa·s: 1.796
- Compound: "CCCCCOC(C)=O + CC(=O)OCc1ccccc1"
  viscosity / mPa·s: 0.9738
- Compound: "CCCCCC + Cc1ccccc1"
  viscosity / mPa·s: 0.372

Pending compound:
(Q) Fill blank: measured viscosity of the compound CCCCCOC(C)=O + OCc1ccccc1 is ____.
(A) 1.035
